Tested on: Enterococcus faecalis
Assay: Antibacterial activity against Enterococcus faecalis ATCC29212 assessed as inhibition of bacterial growth incubated for 18 hrs by microdilution broth assay
Type: functional
Field: MIC. Provide a value for each of the molecules that follow.

Looking up Cn1nnc(-c2ccc(-c3c(F)cc4c(c3F)CN3C(=O)O[C@@H](CN)[C@@H]3O4)cn2)n1 , I see its MIC listed as > 64 µg/mL

Looking up CC(=O)NC[C@H]1OC(=O)N2Cc3c(cc(F)c(-c4ccc(C#N)nc4)c3F)O[C@H]12 , I see its MIC listed as > 64 µg/mL

Looking up COC(=O)NC[C@@H]1OC(=O)N2Cc3cc(-c4ccc(C#N)nc4)c(F)cc3O[C@@H]12 , I see its MIC listed as 0.5 µg/mL

Looking up CC(=O)NC[C@@H]1OC(=O)N2Cc3c(cc(F)c(-c4ccc(-c5nnn(C)n5)nc4)c3F)O[C@@H]12 , I see its MIC listed as 2 µg/mL

Looking up CC(=O)c1ccc(-c2c(F)cc3c(c2F)CN2C(=O)O[C@@H](CN)[C@@H]2O3)cc1 , I see its MIC listed as > 64 µg/mL

Looking up CC(=O)NC[C@@H]1OC(=O)N2Cc3cc(-c4ccc(C(C)=O)cc4)c(F)cc3O[C@@H]12 , I see its MIC listed as 1 µg/mL

Looking up COC(=O)NC[C@@H]1OC(=O)N2Cc3cc(-c4ccc(C#N)cc4)c(F)cc3O[C@@H]12 , I see its MIC listed as 0.25 µg/mL

Looking up CC(=O)NC[C@@H]1OC(=O)N2Cc3cc(-c4ccn5ncnc5c4)c(F)cc3O[C@@H]12 , I see its MIC listed as 0.5 µg/mL
